# experimental-system: human motilin receptor (Homo sapiens, UniProt O43193)
# Construct: purchased PerkinElmer 6110544; host or cells: CHO cells, stably transfected
# Sequence (O43193 whole entry): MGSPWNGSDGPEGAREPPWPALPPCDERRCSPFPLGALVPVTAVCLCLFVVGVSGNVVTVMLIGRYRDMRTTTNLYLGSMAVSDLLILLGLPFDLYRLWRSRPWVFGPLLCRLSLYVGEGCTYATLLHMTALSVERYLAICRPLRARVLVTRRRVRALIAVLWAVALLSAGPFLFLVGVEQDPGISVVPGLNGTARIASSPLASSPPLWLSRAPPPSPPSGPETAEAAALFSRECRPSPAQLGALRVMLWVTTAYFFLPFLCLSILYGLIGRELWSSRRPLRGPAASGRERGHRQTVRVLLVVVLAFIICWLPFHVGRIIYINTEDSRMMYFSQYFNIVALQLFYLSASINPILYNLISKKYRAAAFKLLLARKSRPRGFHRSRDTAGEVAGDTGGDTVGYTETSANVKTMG
# test-description: Competitive radioligand binding assay (motilin receptor), Method B1
# assay-context: read-out: Binding Affinity [Ki (μM)]
measured-property: Ki

Example entries and their recorded answers appear below.
given-smiles	measured-property	endpoint-value
CCC[C@@H]1NC(=O)[C@@H](C(C)C)NC(=O)[C@@H](Cc2ccc(O)cc2)NC[C@H](C)Oc2ccccc2CCCNC1=O	Ki	0.1 to 1 µM
CCC[C@@H]1NC(=O)[C@@H](C(C)C)NC(=O)[C@@H](Cc2ccc(O)cc2)NC[C@@H](C)Oc2ccccc2CCCNC1=O	Ki	0.1 to 1 µM

Now consider a different molecule.
Q) Form entry - test system: human motilin receptor (Homo sapiens, UniProt O43193); read-out: Ki; molecule: CC(C)[C@H]1NC(=O)[C@@H](Cc2cccc(Cl)c2)NCCOc2ccccc2C[C@@H](C)CNC(=O)[C@H](CC2CC2)NC1=O
A) 0.001 to 0.1 µM

---

# experimental-system: human motilin receptor (Homo sapiens, UniProt O43193)
# Construct: purchased PerkinElmer 6110544; host or cells: CHO cells, stably transfected
# test-description: Competitive radioligand binding assay (motilin receptor), Method B1
# assay-context: read-out: Binding Affinity [Ki (μM)]
measured-property: Ki

Example molecules with recorded Ki:
molecule	Ki
CC(C)[C@H]1NC(=O)[C@@H](Cc2cccc(Cl)c2)NCCOc2ccccc2C[C@H](O)CNC(=O)[C@H](CC2CC2)NC1=O	0.001 to 0.1 µM
CC1CNC(=O)[C@H](CC2CC2)NC(=O)[C@@H](C(C)C)NC(=O)[C@@H](Cc2cccc(Cl)c2)NCCOc2ccccc2C1 (stereo partly drawn)	0.001 to 0.1 µM

Q) Can you look up Ki on human motilin receptor (Homo sapiens, UniProt O43193) for CC(C)[C@H]1NC(=O)[C@@H](Cc2cccc(F)c2)N[C@@H](C)COc2ccccc2CCCNC(=O)[C@H](CC2CC2)NC1=O ?
A) 0.001 to 0.1 µM

---

A collection of compounds and their measured Ki
# experimental-system: human motilin receptor (Homo sapiens, UniProt O43193)
# Construct: purchased PerkinElmer 6110544; host or cells: CHO cells, stably transfected
# test-description: Competitive radioligand binding assay (motilin receptor), Method B1
# assay-context: read-out: Binding Affinity [Ki (μM)]

Recorded results for 3 compounds are shown here.
compound	endpoint-value
CC(C)[C@H]1NC(=O)[C@@H](Cc2cccc(Cl)c2)N[C@@H](C)COc2ccccc2CCCNC(=O)[C@H](CNC(=N)N)NC1=O	0.001 to 0.1 µM
CCC[C@@H]1NC(=O)[C@@H](C(C)C)NC(=O)[C@@H](Cc2ccc(OC)cc2)NC(C)COc2ccccc2CCCNC1=O (stereo partly shown)	0.001 to 0.1 µM
CC(C)[C@H]1NC(=O)[C@@H](Cc2cccc(F)c2)NCCOc2ccccc2C[C@@H](C)CNC(=O)[C@H](CC2CC2)NC1=O	0.001 to 0.1 µM

Q) Item CC(C)[C@H]1NC(=O)[C@@H](Cc2cccc(C(F)(F)F)c2)NCCOc2ccccc2C[C@H](C)CNC(=O)[C@H](CNC(=N)N)NC1=O has what recorded Ki?
A) 0.001 to 0.1 µM

---

# experimental-system: human ghrelin receptor (hGHS-R1a) (Homo sapiens, UniProt Q92847)
# Construct: purchased PerkinElmer BioSignal RBHGHSM, lot#1887; host or cells: HEK-293 cells, stably transfected
# Sequence (Q92847 whole entry): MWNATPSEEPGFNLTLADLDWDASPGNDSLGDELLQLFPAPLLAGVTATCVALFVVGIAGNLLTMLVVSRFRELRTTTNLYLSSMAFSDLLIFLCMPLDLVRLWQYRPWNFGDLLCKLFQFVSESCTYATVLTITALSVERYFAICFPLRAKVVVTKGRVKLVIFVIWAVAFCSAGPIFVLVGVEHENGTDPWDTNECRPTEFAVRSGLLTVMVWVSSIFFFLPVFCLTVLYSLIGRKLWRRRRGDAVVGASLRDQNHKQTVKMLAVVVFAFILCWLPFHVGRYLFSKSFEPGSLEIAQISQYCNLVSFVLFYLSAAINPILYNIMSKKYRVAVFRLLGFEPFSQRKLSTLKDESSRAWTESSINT
# test-description: Competitive radioligand binding assay (ghrelin receptor), Method B2
# assay-context: read-out: Binding Affinity [Ki (μM)]
Listed compounds paired with reported Ki

compound	experimental-system	Ki
CC1CNC(C2CC2)C(=O)N(C)C(C)C(=O)NC(Cc2ccc(F)cc2)C(=O)NCCCc2ccccc2O1 (centres unmarked)	human ghrelin receptor (hGHS-R1a) (Homo sapiens, UniProt Q92847)	0.001 to 0.1 µM
CC1CNC(=O)C(Cc2ccc(F)cc2)NC(=O)C(C)N(C)C(=O)C(C2CC2)NCCOc2ccccc2C1 (centres unmarked)	human ghrelin receptor (hGHS-R1a) (Homo sapiens, UniProt Q92847)	0.1 to 1 µM
CC1COc2ccccc2CCCNC(=O)C(Cc2ccc(F)cc2)NC(=O)C(C)N(C)C(=O)C(C2CC2)N1 (centres unmarked)	human ghrelin receptor (hGHS-R1a) (Homo sapiens, UniProt Q92847)	0.001 to 0.1 µM
CCC(C)C1NCC(C)Oc2ccccc2CCCNC(=O)C(Cc2cccc(Cl)c2)NC(=O)C2(CCCC2)NC1=O (centres unmarked)	human ghrelin receptor (hGHS-R1a) (Homo sapiens, UniProt Q92847)	0.001 to 0.1 µM
CCC(C)[C@@H]1NC[C@H](C)Oc2ccccc2CCCNC(=O)[C@@H](Cc2ccccc2)NC(=O)[C@@H](C)N(C)C1=O (some centres unmarked)	human ghrelin receptor (hGHS-R1a) (Homo sapiens, UniProt Q92847)	0.001 to 0.1 µM

Q) What reported Ki corresponds to CCC(C)C1NCCOc2ccccc2C(C)CCNC(=O)C(Cc2cccc(Cl)c2)NC(=O)C2(CCCC2)NC1=O (centres unmarked) on human ghrelin receptor (hGHS-R1a) (Homo sapiens, UniProt Q92847)?
A) 0.1 to 1 µM

Q) Field: Ki (human ghrelin receptor (hGHS-R1a) (Homo sapiens, UniProt Q92847)). Entry: CCC(C)[C@@H]1NC[C@@H](C)Oc2ccccc2CCCNC(=O)[C@@H](Cc2ccccc2)NC(=O)[C@@H](C)N(C)C1=O (some centres unmarked)
A) 0.001 to 0.1 µM

Q) Provide the documented Ki with human ghrelin receptor (hGHS-R1a) (Homo sapiens, UniProt Q92847) as the system for CCC(C)C1NCCOc2ccccc2CC(C)CNC(=O)C(Cc2cccc(Cl)c2)NC(=O)C2(CCCC2)NC1=O (centres unmarked)
A) 0.001 to 0.1 µM

---

# experimental-system: human motilin receptor (Homo sapiens)
# Construct: purchased PerkinElmer 6110544; host or cells: CHO cells, stably transfected
# test-description: Competitive radioligand binding assay (motilin receptor), Method B1
# assay-context: read-out: Binding Affinity [Ki (μM)]
# Ki values compiled below

Q) Recorded Ki of CC(C)[C@H]1NC(=O)[C@@H](Cc2cccc(F)c2)NCCOc2ccccc2C[C@@H](O)CNC(=O)[C@H](CC2CC2)NC1=O , please.
A) 0.1 to 1 µM

Q) Returns the measured Ki for the input molecule. Input: CC(C)[C@H]1NC(=O)[C@@H](Cc2cccc(Cl)c2)NCCOc2ccccc2C[C@H](C)CNC(=O)[C@H](CC2CC2)NC1=O
A) 0.001 to 0.1 µM

Q) What value of Ki has been reported for the following molecule? CC(C)[C@H]1NC(=O)[C@@H](Cc2cccc(F)c2)NC[C@@H](C)Oc2ccccc2CCCNC(=O)[C@H](CC2CC2)NC1=O
A) 0.1 to 1 µM
